Cited source: patent US9604933B2

# Tested on: IGROV1
So basically: is GI50 under 3 µM? Then rule met. Not under? Then rule not met.

Would you kindly verify if GI50 of COc1ccc(C(=O)/C=C/c2cc(-c3ccc4c(c3)OCO4)n[nH]2)cc1OC is strictly less than 3 µM?
rule met

Would you kindly verify if GI50 of COc1ccc(C(=O)/C=C/c2cc(-c3cc(OC)c(OC)c(OC)c3)n[nH]2)cc1OC is strictly less than 3 µM?
rule met

Would you kindly verify if GI50 of COc1cc(C(=O)/C=C/c2cc(-c3cc(OC)c(OC)c(OC)c3)n[nH]2)cc(OC)c1OC [10e] is strictly less than 3 µM?
rule not met

Would you kindly verify if GI50 of COc1cc(-c2cc(/C=C/C(=O)c3ccc4c(c3)OCO4)[nH]n2)cc(OC)c1OC [11e] is strictly less than 3 µM?
rule not met

Would you kindly verify if GI50 of COc1ccc(C(=O)/C=C/c2cc(-c3cc(OC)c(OC)c(OC)c3)n[nH]2)cc1 is strictly less than 3 µM?
rule met

---
Would you kindly verify if GI50 of COc1cc(-c2cc(/C=C/C(=O)c3ccc(Cl)c(Cl)c3)[nH]n2)cc(OC)c1OC [12e] is strictly less than 3 µM?
rule not met

Would you kindly verify if GI50 of COc1cc(-c2cc(/C=C/C(=O)c3ccc(F)c(F)c3)[nH]n2)cc(OC)c1OC [13e] is strictly less than 3 µM?
rule not met

====

# Tested on: human tumor cell lines
# measurement description: NCI SRB cytotoxicity, all fifty nine human tumor cell lines
# Format: cell-based
# test parameters: Homo sapiens, against human tumor cell lines; read-out: Log10 GI50 mean graph midpoint (MG_MID) (converted)
reported property: GI50 (nM)
Record the value in nM, omitting the unit from your answer.

// GI50 value for COc1ccc(C(=O)/C=C/c2cc(-c3cc(OC)c(OC)c(OC)c3)n[nH]2)cc1OC : 1350

// GI50 value for COc1cc(C(=O)/C=C/c2cc(-c3cc(OC)c(OC)c(OC)c3)n[nH]2)cc(OC)c1OC [10e] : 1550

---
// GI50 value for COc1ccc(C(=O)/C=C/c2cc(-c3ccc4c(c3)OCO4)n[nH]2)cc1OC : 2750

// GI50 value for COc1cc(-c2cc(/C=C/C(=O)c3ccc(Cl)c(Cl)c3)[nH]n2)cc(OC)c1OC [12e] : 6610

// GI50 value for COc1cc(-c2cc(/C=C/C(=O)c3ccc4c(c3)OCO4)[nH]n2)cc(OC)c1OC [11e] : 2690

// GI50 value for COc1cc(-c2cc(/C=C/C(=O)c3ccc(F)c(F)c3)[nH]n2)cc(OC)c1OC [13e] : 2820

// GI50 value for COc1ccc(C(=O)/C=C/c2cc(-c3cc(OC)c(OC)c(OC)c3)n[nH]2)cc1 : 1780

====

# Tested on: DU-145
Known GI50 of a selection of compounds
Record the value in nM, omitting the unit from your answer.

Please review the following examples before continuing.
Observed GI50 on DU-145, entry COc1ccc(C(=O)/C=C/c2cc(-c3ccc4c(c3)OCO4)n[nH]2)cc1OC [8f] , equals 1800

Observed GI50 on DU-145, entry COc1ccc(C(=O)/C=C/c2cc(-c3cc(OC)c(OC)c(OC)c3)n[nH]2)cc1OC [8e] , equals 550

Observed GI50 on DU-145, entry COc1ccc(C(=O)/C=C/c2cc(-c3cc(OC)c(OC)c(OC)c3)n[nH]2)cc1 [7e] , equals 1430

Next item in the queue.
Observed GI50 on DU-145, entry COc1cc(-c2cc(/C=C/C(=O)c3ccc4c(c3)OCO4)[nH]n2)cc(OC)c1OC [11e] , equals 2720
